I'd appreciate it if you could supply relative viability values for the items below.
system: NCI-H2405; assay: relative viability (nuclei count vs DMSO), 5 days (fraction); higher = more cells survive; details: first compound 0.8 µM
I'd appreciate a reply containing only the number, no unit.

Incoming: Tell us which relative viability value is on record for C=C1C(=O)O[C@@H](CCCCCCCC)[C@@H]1C(=O)O [C-75] + COc1cccc2cc(-c3nc([C@H]4CC[C@H](C(=O)O)CC4)n4ncnc(N)c34)[nH]c12 [OSI-027] (partner 0.5 µM)
Outgoing: 0.657

Incoming: Tell us which relative viability value is on record for Oc1nc(-c2ccc(C(F)(F)F)cc2)nc2c1CSCC2 [XAV939] + CS(=O)(=O)N1CCN(Cc2cc3nc(-c4cccc5[nH]ncc45)nc(N4CCOCC4)c3s2)CC1 [Pictilisib] (partner 1 µM)
Outgoing: 0.416

Incoming: Tell us which relative viability value is on record for C=C1C(=O)O[C@@H](CCCCCCCC)[C@@H]1C(=O)O [C-75] + Nc1ncn([C@H]2C[C@H](O)[C@@H](CO)O2)c(=O)n1 [Decitabine] (partner 2 µM)
Outgoing: 0.714

Incoming: Tell us which relative viability value is on record for C=C1C(=O)O[C@@H](CCCCCCCC)[C@@H]1C(=O)O [C-75] + COc1cc2c(Oc3ccc(NC(=O)C4(C(=O)Nc5ccc(F)cc5)CC4)cc3F)ccnc2cc1OCCCN1CCOCC1 [Foretinib] (partner 0.25 µM)
Outgoing: 1.05

Incoming: Tell us which relative viability value is on record for Oc1nc(-c2ccc(C(F)(F)F)cc2)nc2c1CSCC2 [XAV939] + CC1(C)CCC(c2ccc(Cl)cc2)=C(CN2CCN(c3ccc(C(=O)NS(=O)(=O)c4ccc(N[C@H](CCN5CCOCC5)CSc5ccccc5)c(S(=O)(=O)C(F)(F)F)c4)cc3)CC2)C1 [Navitoclax] (partner 0.5 µM)
Outgoing: 0.886

Incoming: Tell us which relative viability value is on record for Oc1nc(-c2ccc(C(F)(F)F)cc2)nc2c1CSCC2 [XAV939] + COc1cc2c(Oc3ccc(NC(=O)C4(C(=O)Nc5ccc(F)cc5)CC4)cc3F)ccnc2cc1OCCCN1CCOCC1 [Foretinib] (partner 0.25 µM)
Outgoing: 1.03

Incoming: Tell us which relative viability value is on record for C=C1C(=O)O[C@@H](CCCCCCCC)[C@@H]1C(=O)O [C-75] + CC(=O)Nc1cccc(-n2c(=O)n(C3CC3)c(=O)c3c(Nc4ccc(I)cc4F)n(C)c(=O)c(C)c32)c1 [Trametinib] (partner 0.02 µM)
Outgoing: 0.691

Incoming: Tell us which relative viability value is on record for Oc1nc(-c2ccc(C(F)(F)F)cc2)nc2c1CSCC2 [XAV939] + NC(=O)Nc1cc(-c2cccc(F)c2)sc1C(=O)N[C@H]1CCCNC1 [AZD7762] (partner 0.2 µM)
Outgoing: 0.672

Incoming: Tell us which relative viability value is on record for C=C1C(=O)O[C@@H](CCCCCCCC)[C@@H]1C(=O)O [C-75] + C[C@@H](Oc1cc(-c2cnn(C3CCNCC3)c2)cnc1N)c1c(Cl)ccc(F)c1Cl [Crizotinib] (partner 1 µM)
Outgoing: 0.796

Incoming: Tell us which relative viability value is on record for C=C1C(=O)O[C@@H](CCCCCCCC)[C@@H]1C(=O)O [C-75] + O=C(CCCCCCC(=O)Nc1ccccc1)NO [Vorinostat] (partner 1 µM)
Outgoing: 0.313
